# TEST_SYSTEM: biotinylated human ACE2 (Acrobiosystems EP-105 kit) (Homo sapiens, UniProt Q9BYF1 18-740)
# Sequence (Q9BYF1 18-740): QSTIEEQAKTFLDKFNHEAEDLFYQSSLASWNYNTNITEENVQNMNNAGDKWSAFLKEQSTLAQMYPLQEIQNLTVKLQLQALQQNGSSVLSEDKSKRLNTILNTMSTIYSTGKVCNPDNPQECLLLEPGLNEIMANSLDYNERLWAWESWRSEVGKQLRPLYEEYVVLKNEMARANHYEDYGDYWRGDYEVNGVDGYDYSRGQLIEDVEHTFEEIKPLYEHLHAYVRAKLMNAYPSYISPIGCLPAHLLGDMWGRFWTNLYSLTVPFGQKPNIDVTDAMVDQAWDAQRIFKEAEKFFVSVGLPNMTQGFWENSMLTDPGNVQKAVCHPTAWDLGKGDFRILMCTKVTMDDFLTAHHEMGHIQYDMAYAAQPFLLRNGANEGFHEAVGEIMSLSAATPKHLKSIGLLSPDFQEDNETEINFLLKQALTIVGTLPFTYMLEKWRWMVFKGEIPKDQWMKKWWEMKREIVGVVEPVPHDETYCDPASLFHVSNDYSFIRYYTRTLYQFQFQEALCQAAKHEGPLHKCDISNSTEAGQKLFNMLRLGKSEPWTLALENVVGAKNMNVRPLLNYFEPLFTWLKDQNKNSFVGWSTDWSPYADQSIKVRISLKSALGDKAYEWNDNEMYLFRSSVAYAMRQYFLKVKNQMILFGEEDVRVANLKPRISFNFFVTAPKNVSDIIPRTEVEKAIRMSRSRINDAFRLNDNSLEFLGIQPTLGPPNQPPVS
# PROTOCOL_DETAILS: competition ELISA
PROPERTY: IC50 (nM)
Unit nM implied. Number only.

- Apt 6 (ssDNA) DNA: ATAGTCCCTGGCGTGCTTGACAGCAACACGAACACTGAACGTTCTTAACAAGCCTGGCAGAGCAGGTACGGTGTCA: 35

Would you kindly look at the next entry?
Tell me the measured IC50 of Apt 14 (ssDNA) DNA: ATAGTCCCTGGCGTGCTTCCGCGAGAGTTCGACATTCCCGAAAGTACGACGAAAGTCCAGAGCAGGTACGGTGTCA , please.
132
